# TEST TARGET: LC3B (Homo sapiens)
# PROTOCOL: Fluorescence Polarization (FP) Assay: displacement of FITC-labeled peptide from GST-LC3B
# Assay type: binding
# RECORDED CONDITIONS: Fluorescence Polarization assay; GST-LC3B 180 nM, FITC-labeled peptide 18 nM, 25° C.; read-out: IC50
Where a name gives a salt, the structure may show the parent alone.
Parameter IC50: see the listing below.
MEASUREMENT KIND: IC50

1. CC1(C)CC(=O)C(=CNCCN2CCN(CCO)CC2)C(=O)C1
100 to 1000 µM
2. O=C1CC(c2ccsc2)CC(=O)C1=CO (stereo not shown) [Compound 458, potassium salt]
3 to 15 µM
3. CN1C(=O)/C(=C\NCCN2CCN(CCO)CC2)C(=O)c2ccccc21
15 to 100 µM
4. COc1cc(Br)c(C2CC(=O)C(=CO)C(=O)C2)cc1OC (stereo not shown)
< 3 µM
5. O=C1C(=CNCCN2CCN(CCO)CC2)C(=O)c2ccccc21
100 to 1000 µM
6. O=C1CC(c2ccnc3ccccc23)CC(=O)C1=CNCCN1CCN(CCO)CC1 (stereo not shown)
3 to 15 µM
7. COc1cc(Br)c(C2CC(=O)C(=CNCCN(C)C)C(=O)C2)cc1OC (stereo not shown)
< 3 µM
8. O=C1CC(c2ccc(Sc3ccccc3)cc2)CC(=O)C1=CNCCN1CCN(CCO)CC1 (stereo not shown)
15 to 100 µM
9. O=C1CC(c2ccnc3[nH]ccc23)CC(=O)C1=CNCCN1CCN(CCO)CC1 (stereo not shown)
3 to 15 µM
10. CC(C)CC(=O)N1CCN(CCNC=C2C(=O)CC(c3ccccc3)CC2=O)CC1 (stereo not shown)
< 3 µM
11. CCOC(=O)[C@H](C)NC=C1C(=O)CC(c2ccccc2)CC1=O (stereo partly shown)
15 to 100 µM
12. Cc1ccc(C2CC(=O)C(=CNCCN3CCN(CCO)CC3)C(=O)C2)c(Br)c1 (stereo not shown)
< 3 µM
13. O=C1CC(CCc2ccc3c(c2)OCO3)CC(=O)C1=CO (stereo not shown)
15 to 100 µM
14. CN(C)CCNC=C1C(=O)CC(c2c(C(F)(F)F)ccc(Cl)c2Cl)CC1=O (stereo not shown)
< 3 µM
15. CN(C)CCNC=C1C(=O)CC(c2c[nH]cc2Br)CC1=O (stereo not shown)
3 to 15 µM
16. O=C1CC(c2ccc(-c3ncnc4[nH]cnc34)cc2)CC(=O)C1=CNCCN1CCN(CCO)CC1 (stereo not shown)
15 to 100 µM
17. CCC(CC)C1CC(=O)C(=CNCCN2CCN(CCO)CC2)C(=O)C1 (stereo not shown)
15 to 100 µM
18. O=C1CC(c2ccccc2)OC(=O)C1=CNCCN1CCN(CCO)CC1 (stereo not shown)
15 to 100 µM
19. Nc1nc2c(C3CC(=O)C(=CNCCN4CCN(CCO)CC4)C(=O)C3)cccc2s1 (stereo not shown)
15 to 100 µM
20. CCC(=O)N1CCN(CCNC=C2C(=O)CC(c3ccccc3)CC2=O)CC1 (stereo not shown)
< 3 µM
21. O=C1CC(c2ccccc2)CC(=O)C1=CNCCN1CCNCC1 (stereo not shown)
3 to 15 µM
22. CN(C)C=C1C(=O)CC(c2c[nH]c3ccccc23)CC1=O (stereo not shown)
< 3 µM
23. COc1ccc(Br)c(C2CC(=O)C(=CO)C(=O)C2)c1 (stereo not shown)
< 3 µM
24. O=C1CC(c2ccccc2)CC(=O)C1=CNCCc1c[nH]c2ccccc12 (stereo not shown)
100 to 1000 µM
25. Cc1cccc2[nH]cc(C3CC(=O)C(=CNCCN4CCN(CCO)CC4)C(=O)C3)c12 (stereo not shown)
100 to 1000 µM
26. CC(c1ccccc1)C1CC(=O)C(=CNCCN2CCN(CCO)CC2)C(=O)C1 (stereo not shown)
15 to 100 µM
27. COc1ccccc1C1CC(=O)C(=CO)C(=O)C1 (stereo not shown)
3 to 15 µM
28. O=C1CC(c2c[nH]c3ccccc23)CC(=O)C1=CO (stereo not shown)
< 3 µM
